system: HCC-78; assay: relative viability (nuclei count vs DMSO), 5 days (fraction); higher = more cells survive; conditions: first compound 0.1581 µM
Quick reference for relative viability among some molecules

molecule | relative viability
Nc1ccn([C@@H]2O[C@H](CO)[C@@H](O)[C@@H]2O)c(=O)n1 [Cytarabine] + Cc1cc(Nc2cc(N3CCN(C)CC3)nc(Sc3ccc(NC(=O)C4CC4)cc3)n2)n[nH]1 [Tozasertib] (partner 0.1 µM) | 0.333
COc1cc2nccc(Oc3ccc(NC(=O)Nc4cc(C)on4)c(Cl)c3)c2cc1OC [Tivozanib] + O=C(c1cc(Cc2n[nH]c(=O)c3ccccc23)ccc1F)N1CCN(C(=O)C2CC2)CC1 [Olaparib] (partner 8 µM) | 0.872
Nc1ccn([C@@H]2O[C@H](CO)[C@@H](O)[C@@H]2O)c(=O)n1 [Cytarabine] + CC(C)C[C@H](NC(=O)[C@H](Cc1ccccc1)NC(=O)c1cnccn1)B(O)O [Bortezomib] (partner 0.002 µM) | 0.378

Taken from the supplement of paper PMC10307832.
